molecular target: C-C chemokine receptor type 2 (Rattus norvegicus, UniProt O55193); experiment: Binding affinity to rat CCR2
Sequence (O55193 whole entry): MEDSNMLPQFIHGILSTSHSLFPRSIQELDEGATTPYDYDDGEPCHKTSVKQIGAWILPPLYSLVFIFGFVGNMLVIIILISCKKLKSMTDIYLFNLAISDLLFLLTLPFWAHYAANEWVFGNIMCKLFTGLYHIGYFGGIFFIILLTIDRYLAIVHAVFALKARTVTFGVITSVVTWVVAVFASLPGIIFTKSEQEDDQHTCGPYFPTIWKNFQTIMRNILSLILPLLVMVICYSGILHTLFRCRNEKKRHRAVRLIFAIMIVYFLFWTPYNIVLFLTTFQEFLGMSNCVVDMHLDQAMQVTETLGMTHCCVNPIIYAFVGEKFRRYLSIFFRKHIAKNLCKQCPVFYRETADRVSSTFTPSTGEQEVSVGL
readoutLabel: IC50 (nM)

| compound | readoutLabel | measureUnit | readoutValue |
| --- | --- | --- | --- |
| O=C(NCC(=O)N1CC[C@H](N[C@H]2CC[C@@](O)(c3ccc(-c4ncccn4)cn3)CC2)C1)c1cccc(C(F)(F)F)c1 [PF-4136309] | IC50 | nM | 13 |

---

target: Voltage-gated inwardly rectifying potassium channel KCNH2 (Homo sapiens); experiment: Displacement of [3H]dofetilide from human ERG
Sequence (Q12809 whole entry): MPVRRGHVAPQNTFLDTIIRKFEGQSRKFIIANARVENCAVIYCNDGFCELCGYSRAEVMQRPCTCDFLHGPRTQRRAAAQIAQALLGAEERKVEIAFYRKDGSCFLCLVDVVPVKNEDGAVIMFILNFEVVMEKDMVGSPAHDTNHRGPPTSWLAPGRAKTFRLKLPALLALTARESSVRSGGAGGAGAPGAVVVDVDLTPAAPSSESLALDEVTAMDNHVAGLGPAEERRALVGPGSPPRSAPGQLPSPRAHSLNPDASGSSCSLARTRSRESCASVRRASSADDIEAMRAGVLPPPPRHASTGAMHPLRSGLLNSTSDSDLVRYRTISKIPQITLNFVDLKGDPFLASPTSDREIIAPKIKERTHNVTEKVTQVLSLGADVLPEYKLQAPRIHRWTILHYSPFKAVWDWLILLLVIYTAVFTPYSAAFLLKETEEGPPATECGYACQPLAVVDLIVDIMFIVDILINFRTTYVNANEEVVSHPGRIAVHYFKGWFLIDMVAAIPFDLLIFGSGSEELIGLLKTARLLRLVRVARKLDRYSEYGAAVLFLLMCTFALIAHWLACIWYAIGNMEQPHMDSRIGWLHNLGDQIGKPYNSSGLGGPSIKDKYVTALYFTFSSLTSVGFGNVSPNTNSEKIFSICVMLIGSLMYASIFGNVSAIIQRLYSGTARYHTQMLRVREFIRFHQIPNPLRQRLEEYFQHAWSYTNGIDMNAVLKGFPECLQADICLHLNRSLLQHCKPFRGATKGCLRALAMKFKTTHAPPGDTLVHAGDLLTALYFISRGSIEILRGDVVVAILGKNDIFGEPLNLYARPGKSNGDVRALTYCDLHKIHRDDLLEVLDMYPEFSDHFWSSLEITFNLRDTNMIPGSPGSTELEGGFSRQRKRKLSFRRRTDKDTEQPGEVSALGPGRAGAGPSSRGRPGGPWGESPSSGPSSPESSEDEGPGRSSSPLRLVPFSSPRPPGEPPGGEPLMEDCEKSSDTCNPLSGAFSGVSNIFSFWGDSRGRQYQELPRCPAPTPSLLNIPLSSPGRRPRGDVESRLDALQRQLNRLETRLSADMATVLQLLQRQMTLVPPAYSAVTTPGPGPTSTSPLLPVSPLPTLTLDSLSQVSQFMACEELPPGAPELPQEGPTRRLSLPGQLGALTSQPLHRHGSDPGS
Quick reference for IC50 among some compounds

| compound | measureUnit | qualifyingSign | IC50 |
| --- | --- | --- | --- |
| O=C(NCC(=O)N1CC[C@H](N[C@H]2CC[C@@](O)(c3ccc(-c4ncccn4)cn3)CC2)C1)c1cccc(C(F)(F)F)c1 [PF-4136309] | µM | > | 30 |
| Cc1ccc([C@]2(O)CC[C@H](N[C@H]3CCN(C(=O)CNC(=O)c4cccc(C(F)(F)F)c4)C3)CC2)nc1 | µM | = | 24 |
| O=C(NCC(=O)N1CC[C@H](N[C@H]2CC[C@@](O)(c3ccccn3)CC2)C1)c1cccc(C(F)(F)F)c1 | µM | > | 30 |
| O=C(C1CCN(c2cc(C(F)(F)F)ccn2)CC1)N1CC[C@H](N[C@H]2CC[C@@](O)(c3ccc(-c4ncccn4)cn3)CC2)C1 | µM | = | 28 |
| O=C(N1CC[C@H](N[C@H]2CC[C@@](O)(c3ccc(-c4ncccn4)cn3)CC2)C1)C1(O)CCN(c2cc(C(F)(F)F)ccn2)CC1 | µM | > | 30 |
| O=C(NCC(=O)N1CC[C@H](N[C@H]2CC[C@@](O)(c3ccc(-c4cnccn4)cn3)CC2)C1)c1cccc(C(F)(F)F)c1 | µM | > | 30 |
| O=C(NCC(=O)N1CC[C@H](N[C@H]2CC[C@@](O)(c3ccc(-c4cccnc4)cn3)CC2)C1)c1cccc(C(F)(F)F)c1 | µM | = | 30 |
| O=C(C1CCN(c2cccc(C(F)(F)F)c2)CC1)N1CC[C@H](N[C@H]2CC[C@@](O)(c3ccc(-c4ncccn4)cn3)CC2)C1 | µM | = | 9 |
| O=C(C1CCN(c2cc(C(F)(F)F)ncn2)CC1)N1CC[C@H](N[C@H]2CC[C@@](O)(c3ccc(-c4ncccn4)cn3)CC2)C1 | µM | > | 30 |
| O=C(NCC(=O)N1CC[C@H](N[C@H]2CC[C@@](O)(c3ccc(-c4nccs4)cn3)CC2)C1)c1cccc(C(F)(F)F)c1 | µM | > | 30 |
